test-method-notes: UGT inhibitor LDH cytotoxicity assay
Assay type: cell-based
assay-context: human, HEK cells; 200 μM, overnight, LDH
parameter-measured: cytotoxicity at 200 µM (%)
Give bare numbers, in %.

Task item: Provide one value: measured cytotoxicity at 200 µM of O=C1C(CC[S+]([O-])c2ccccc2)C(=O)N(c2ccccc2)N1c1ccccc1 (stereo not shown) [sulfinpyrazone]
Reply: -5.35

---

test-method-notes: UGT inhibitor LDH cytotoxicity assay
Assay type: cell-based
assay-context: human
parameter-measured: cytotoxicity at 500 µM

Task item: Return cytotoxicity at 500 µM for the following compound: `CCCN(CCC)S(=O)(=O)c1ccc(C(=O)O)cc1`
Reply: -1.34%

---

test-method-notes: UGT inhibitor LDH cytotoxicity assay
Type: cell-based
assay-context: human
parameter-measured: cytotoxicity at 250 µM (%)
Give bare numbers, in %.

Task item: Complete the entry with cytotoxicity at 250 µM for CCCN(CCC)S(=O)(=O)c1ccc(C(=O)O)cc1 [probenecid, p-(di-n-propylsulphamyl)-benzoic acid]
Reply: -0.67

---

test-method-notes: UGT inhibitor LDH cytotoxicity assay
Format: cell-based
assay-context: human, HEK cells; 40 μM, overnight, LDH
parameter-measured: cytotoxicity at 40 µM (%)
Give bare numbers, in %.

Task item: Identify the reported cytotoxicity at 40 µM for the following entry. O=C1C(CC[S+]([O-])c2ccccc2)C(=O)N(c2ccccc2)N1c1ccccc1 (stereo not shown)
Reply: -4.03

---

test-method-notes: UGT inhibitor LDH cytotoxicity assay
Assay type: cell-based
assay-context: human
parameter-measured: cytotoxicity at 5000 µM
Returns: string containing the numeric result and its unit.

Task item: Check the records and state cytotoxicity at 5000 µM for CCCN(CCC)S(=O)(=O)c1ccc(C(=O)O)cc1 [probenecid, p-(di-n-propylsulphamyl)-benzoic acid]
Reply: -2.49%
